# test: First-in-man single-dose escalation study, plasma PK
# Assay type: in vivo
# cond: both sexes, human, po, 100 ug, 100 μg single oral dose, corrected by CYP2D6 genotype based activity score, mean, n = 6, read-out: AUCinf * AS
# Protocol: The first-in-man study was a randomized, double-blind, placebo-controlled, single-dose escalation study with healthy female and male subjects aged 18-44 years. […] Frequent blood samples were taken through an intravenous cannula for the assessment of the concentration of tasipimidine and its metabolite 1 in plasma. […] The PK parameters were calculated from the plasma concentration-time data by noncompartmental method using the commercial Phoenix WinNonlin software version 8.3.
quantity: AUC(0-inf) (ng·h/mL)
Give the number; ng·h/mL is assumed, so skip it.

Task: Value lookup for AUC(0-inf); key = COc1cccc2c1CCOC2C1=NCCN1 (stereo not shown) [tasipimidine]
Result: 1.03

====

# test: Paroxetine co-treatment crossover PK study in healthy subjects
# Format: in vivo, human
# cond: human, plasma; 10 μg oral, with paroxetine 20 mg once daily for 8 days, mean, n = 5
quantity: Cmax (ng/mL)
Give the number; ng/mL is assumed, so skip it.

Task: Value lookup for Cmax; key = COc1cccc2c1CCOC2C1=NCCN1 (stereo not shown)
Result: 0.047

====

# test: First-in-man single-dose escalation study, plasma PK
# Assay type: in vivo
# cond: both sexes, human, po, 150 ug, 150 μg single oral solution dose, mean, n = 6, healthy subjects, read-out: AUCinf
quantity: AUC(0-inf) (ng·h/mL)
Give the number; ng·h/mL is assumed, so skip it.

Task: Value lookup for AUC(0-inf); key = COc1cccc2c1CCOC2C1=NCCN1 (stereo not shown)
Result: 1.74

====

# test: Physicochemical input parameters of the PBPK model
# cond: input parameter of the PBPK model
quantity: logP
Answer with the value's number alone.

Task: Value lookup for logP; key = COc1cccc2c1CCOC2C1=NCCN1 (stereo not shown)
Result: 1.66

====

# test: First-in-man single-dose escalation study, plasma PK
# Assay type: in vivo
# cond: both sexes, human, po, 10 ug, 10 μg single oral solution dose, mean, n = 6, healthy subjects, read-out: AUCinf
quantity: AUC(0-inf) (ng·h/mL)
Give the number; ng·h/mL is assumed, so skip it.

Task: Value lookup for AUC(0-inf); key = COc1cccc2c1CCOC2C1=NCCN1 (stereo not shown)
Result: 0.052

====

# test: Paroxetine co-treatment crossover PK study in healthy subjects
# Assay type: in vivo, human
# cond: human, plasma; 10 μg oral, with paroxetine 20 mg once daily for 8 days, mean, n = 5; read-out: t½ (converted)
quantity: half-life

Task: Value lookup for half-life; key = COc1cccc2c1CCOC2C1=NCCN1 (stereo not shown)
Result: 4.3 h

====

# test: Paroxetine co-treatment crossover PK study in healthy subjects
# Assay type: in vivo, human
# cond: human, plasma; 10 μg oral, with paroxetine 20 mg once daily for 8 days, mean, n = 5
quantity: AUC(0-inf) (ng·h/mL)
Give the number; ng·h/mL is assumed, so skip it.

Task: Value lookup for AUC(0-inf); key = COc1cccc2c1CCOC2C1=NCCN1 (stereo not shown)
Result: 0.281

====

# test: First-in-man single-dose escalation study, plasma PK
# Format: in vivo
# cond: both sexes, human, po, 25 ug, 25 μg single oral dose, corrected by CYP2D6 genotype based activity score, mean, n = 6, read-out: AUCinf * AS
quantity: AUC(0-inf) (ng·h/mL)
Give the number; ng·h/mL is assumed, so skip it.

Task: Value lookup for AUC(0-inf); key = COc1cccc2c1CCOC2C1=NCCN1 (stereo not shown)
Result: 0.254
